subject of test: T1, soluble mouse GPNMB (recombinant extracellular domain) (mouse, UniProt Q99P91 23-502)
T1 construct: also called moGPNMB; not shown: C-terminal polyhistidine or Avi-His tag
T1 sequence: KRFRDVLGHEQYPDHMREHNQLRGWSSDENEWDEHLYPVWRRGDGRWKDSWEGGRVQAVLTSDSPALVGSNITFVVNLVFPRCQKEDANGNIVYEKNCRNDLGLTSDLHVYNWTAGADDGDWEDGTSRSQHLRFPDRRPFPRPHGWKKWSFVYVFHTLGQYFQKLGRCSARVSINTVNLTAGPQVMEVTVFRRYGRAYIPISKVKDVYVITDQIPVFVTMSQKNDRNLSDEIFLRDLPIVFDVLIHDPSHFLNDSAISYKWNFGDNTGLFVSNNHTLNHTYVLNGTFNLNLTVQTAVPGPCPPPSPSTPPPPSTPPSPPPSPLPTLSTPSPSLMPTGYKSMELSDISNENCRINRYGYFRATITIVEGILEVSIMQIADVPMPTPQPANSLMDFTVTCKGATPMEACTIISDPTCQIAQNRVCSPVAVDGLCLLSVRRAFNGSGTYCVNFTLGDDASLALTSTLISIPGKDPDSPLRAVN
assay comment: SPR Biacore, IgG captured
value type: kon (M⁻¹ s⁻¹)
The reply should be a number in M⁻¹ s⁻¹, with the unit left off.

Ask: Suppose we examine the binder anti-GPNMB antibody GPN-82 (antibody, V domains shown) VH: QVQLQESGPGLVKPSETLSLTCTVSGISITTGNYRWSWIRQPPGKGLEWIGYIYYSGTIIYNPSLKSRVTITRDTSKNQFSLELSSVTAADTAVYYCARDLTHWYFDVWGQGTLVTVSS VL: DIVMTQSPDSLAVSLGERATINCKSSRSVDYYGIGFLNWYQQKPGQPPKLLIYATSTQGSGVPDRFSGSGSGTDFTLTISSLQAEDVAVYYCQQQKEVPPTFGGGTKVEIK ; what kon value has been reported?
Result: 150000

Ask: Suppose we examine the binder anti-GPNMB antibody GPN-90 (antibody, V domains shown) VH: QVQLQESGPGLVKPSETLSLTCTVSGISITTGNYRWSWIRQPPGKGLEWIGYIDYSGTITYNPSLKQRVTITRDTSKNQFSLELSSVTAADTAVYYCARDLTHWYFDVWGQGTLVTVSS VL: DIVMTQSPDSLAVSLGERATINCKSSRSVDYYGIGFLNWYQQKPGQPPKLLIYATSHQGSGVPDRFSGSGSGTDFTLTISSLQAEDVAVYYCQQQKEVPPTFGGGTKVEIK ; what kon value has been reported?
Result: 160000
